Values compiled from the supplement of paper PMC12406974.

In this section, each of the compounds is paired with its reported maximum observed lethal fraction.
Test system: U2OS BAX/BAK1 DKO;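 note: FLICK assay: SYTOX Green fluorescence of dead cells tracked over time after drugging in 96-well plates, with total cell counts taken from Triton X-100 lysed wells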
Test Summary: maximum observed lethal fraction; higher = more cell death
Cond: 0.01 µM
Readout: maximum observed lethal fraction

>>> measured_value("CN(C)C/C=C/C(=O)Nc1ccc(C(=O)Nc2cccc(Nc3ncc(Cl)c(-c4c[nH]c5ccccc45)n3)c2)cc1")
0.0742
>>> measured_value("Cc1[nH]c2ccccc2c1CCNCc1ccc(/C=C/C(=O)NO)cc1")
0.0894
>>> measured_value("CO[C@H]1C[C@@H]2CC[C@@H](C)[C@@](O)(O2)C(=O)C(=O)N2CCCC[C@H]2C(=O)O[C@H]([C@H](C)C[C@@H]2CC[C@@H](O)[C@H](OC)C2)CC(=O)[C@H](C)/C=C(\\C)[C@@H](O)[C@@H](OC)C(=O)[C@H](C)C[C@H](C)/C=C/C=C/C=C/1C")
0.0624
>>> measured_value("CC(C)[C@]12O[C@H]1[C@@H]1O[C@]13[C@]1(O[C@H]1C[C@H]1C4=C(CC[C@@]13C)C(=O)OC4)[C@@H]2O [Triptolide]")
0.0751
>>> measured_value("CC(C)C[C@@H](C=O)NC(=O)[C@H](CC(C)C)NC(=O)[C@H](CC(C)C)NC(=O)OCc1ccccc1")
0.0534
>>> measured_value("C#C[C@@]1(O)[C@@H](CO)O[C@@H](n2ccc(N)nc2=O)[C@@H]1O")
0.0536
